Assay: NCI Yeast Anticancer Drug Screen. Data for the rad50 strain (AID 155);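 also: 0% = growth of vehicle-only cultures of the same strain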
Settings: S. cerevisiae rad50 strain growth inhibition; at 50.0 µM; hits give high values
The panel holds about 79,000 compounds, 15% with a hit somewhere; the sample as a whole holds those more often.
measure: growth inhibition (%)
Your answer is read as %, so omit the unit and give the number.

## Task Consider the molecule `COc1ccc(CCN2CN=C(Sc3ccc([N+](=O)[O-])cc3Cl)NC2)cc1OC` and give its measured growth inhibition.
## Result 11

====

The reader will find reported growth inhibition values listed item by item below.
Experiment: NCI Yeast Anticancer Drug Screen. Data for the rad50 strain (AID 155);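 also: 0% = growth of vehicle-only cultures of the same strain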
Conditions: S. cerevisiae rad50 strain growth inhibition; at 50.0 µM; hits give high values
This is part of a sample that, as a whole, favours compounds with a hit. Of some 79,000 tested, about 15% had one in any assay.
Your answer is read as %, so omit the unit and give the number.

Observe how each entry below is paired with its result.
>  <substance smiles>
c1ccc2c(c1)ncc1cccn12

>  <growth inhibition (%)>
5.15

$$$$
>  <substance smiles>
CS(=O)(=O)Cc1cc(-c2ccccc2)no1

>  <growth inhibition (%)>
15.1

$$$$
>  <substance smiles>
Cc1cc(NN)c2cc3c(cc2n1)OCO3

>  <growth inhibition (%)>
12.4

$$$$
>  <substance smiles>
C(=C/c1ccccn1)/c1ccccc1

>  <growth inhibition (%)>
39.4

$$$$

## Task Consider the compound `CCOCc1cnc(SC)nc1N` and give its measured growth inhibition.
## Result -0.75

## Task Consider the compound `c1cc(CCc2ccncc2)ccn1` and give its measured growth inhibition.
## Result 21.9

## Task Consider the compound `C=CCN(CC=C)c1nc(N)c2ccc(Cl)cc2n1` and give its measured growth inhibition.
## Result -8

## Task Consider the compound `CCN(CC)CCn1c2c3ccccc3ccc2c2oc(=O)c3ccccc3c21` and give its measured growth inhibition.
## Result -13.8

## Task Consider the compound `OC(c1ccccc1)(c1ccccc1)c1nc2ccccc2[nH]1` and give its measured growth inhibition.
## Result 2.7

## Task Consider the compound `C/C(=N/NC(=O)c1ccccc1)C(=O)c1ccccc1` and give its measured growth inhibition.
## Result -4.4

## Task Consider the compound `CCCCCC(=O)NC(=S)Nc1nn[nH]n1` and give its measured growth inhibition.
## Result -38.8

## Task Consider the compound `Cc1ccc2ccccc2[n+]1CC(=O)c1ccc([N+](=O)[O-])cc1` and give its measured growth inhibition.
## Result -16.8

## Task Consider the compound `CC(C)=CC(=O)n1nc2c(c1CC(C)C)C(=O)C(Nc1ccccc1)=CC2=O` and give its measured growth inhibition.
## Result 35.1

Recorded values, source PubChem BioAssay (NCI).
